Test System: KRAS G12C protein (Homo sapiens, UniProt P01116, G12C)
Sequence (P01116 1-188 isoform P01116-2 G12C): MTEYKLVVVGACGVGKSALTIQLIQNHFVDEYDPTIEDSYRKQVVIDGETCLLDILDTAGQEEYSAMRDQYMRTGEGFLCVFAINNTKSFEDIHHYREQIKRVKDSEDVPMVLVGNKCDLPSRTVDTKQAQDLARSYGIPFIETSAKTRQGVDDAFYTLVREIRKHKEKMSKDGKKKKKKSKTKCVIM
Assay Text: Nucleotide exchange assay (Method III, KRAS G12C/Raf-RBD TR-FRET)
Conditions Used: SOS1-mediated exchange of GDP for GTP, 18 hr compound incubation
Reported IC50 values follow for various molecules

>  <Molecule>
C=C(F)C(=O)N1CCN(c2nc(OC3CN(C)CC3C)nc3c2COC(c2cccc4cccc(Cl)c24)C3)C[C@@H]1CC#N (single isomer, unassigned) [272 (Isomer C)]

>  <Test System>
KRAS G12C protein (Homo sapiens, UniProt P01116, G12C)

>  <IC50>
≤ 0.3 µM

$$$$
>  <Molecule>
C=C(F)C(=O)N1CCN(c2nc(OC[C@@H]3CCCN3C)nc3c2COC(c2cccc4cccc(Cl)c24)C3)CC1(C)C (single isomer, unassigned) [238 (Isomer B)]

>  <Test System>
KRAS G12C protein (Homo sapiens, UniProt P01116, G12C)

>  <IC50>
≥ 3 µM

$$$$
>  <Molecule>
C=C(F)C(=O)N1CCN(c2nc(NC3CCN(S(C)(=O)=O)CC3)nc3c2COC(c2cccc4cccc(Cl)c24)C3)C[C@@H]1CC#N (single isomer, unassigned) [231 (Isomer B)]

>  <Test System>
KRAS G12C protein (Homo sapiens, UniProt P01116, G12C)

>  <IC50>
≥ 3 µM

$$$$
>  <Molecule>
C=C(F)C(=O)N1CCN(c2nc(OC[C@@H]3CCCN3C)nc3c2OCC(c2cccc4cccc(Cl)c24)O3)[C@@H](C)C1 (single isomer, unassigned) [136 (Isomer B)]

>  <Test System>
KRAS G12C protein (Homo sapiens, UniProt P01116, G12C)

>  <IC50>
≥ 3 µM

$$$$
>  <Molecule>
C=C(F)C(=O)N1CCN(c2nc(OC[C@@H]3CCCN3C)nc3c2COC(c2c(C)ccc4[nH]ncc24)C3)C[C@@H]1CC#N (single isomer, unassigned) [52 (Isomer B)]

>  <Test System>
KRAS G12C protein (Homo sapiens, UniProt P01116, G12C)

>  <IC50>
≤ 0.3 µM

$$$$
>  <Molecule>
C=C(F)C(=O)N1CCN(c2nc(Oc3cccc4c3CCN(C)C4)nc3c2COC(c2cccc4cccc(Cl)c24)C3)C[C@@H]1CC#N (single isomer, unassigned) [250 (Isomer B)]

>  <Test System>
KRAS G12C protein (Homo sapiens, UniProt P01116, G12C)

>  <IC50>
0.3 to 3 µM

$$$$
>  <Molecule>
C=C(F)C(=O)N1CCN(c2nc(OC[C@@H]3CCCN3C)nc3c2COC(c2cccc4sc(N)nc24)C3)C[C@@H]1CC#N (single isomer, unassigned) [260 (Isomer A)]

>  <Test System>
KRAS G12C protein (Homo sapiens, UniProt P01116, G12C)

>  <IC50>
≤ 0.3 µM

$$$$
>  <Molecule>
C/C=C/C(=O)N1CCN(c2nc(OC[C@@H]3CCCN3C)nc3c2COC(c2cccc4cccc(Cl)c24)C3)C[C@@H]1CC#N (single isomer, unassigned) [241 (Isomer A)]

>  <Test System>
KRAS G12C protein (Homo sapiens, UniProt P01116, G12C)

>  <IC50>
≤ 0.3 µM

$$$$
>  <Molecule>
C=C(F)C(=O)N1CCN(c2nc(N3CCC(N(CC)CC)CC3)nc3c2COC(c2cccc4cccc(Cl)c24)C3)C[C@@H]1CC#N (single isomer, unassigned) [230 (Isomer A)]

>  <Test System>
KRAS G12C protein (Homo sapiens, UniProt P01116, G12C)

>  <IC50>
≥ 3 µM

$$$$
>  <Molecule>
CC#CC(=O)N1CCN(c2nc(OC[C@@H]3CCCN3C)nc3c2COC(c2cccc4cccc(Cl)c24)C3)C[C@@H]1CC#N (single isomer, unassigned) [243 (Isomer A)]

>  <Test System>
KRAS G12C protein (Homo sapiens, UniProt P01116, G12C)

>  <IC50>
≥ 3 µM

$$$$
>  <Molecule>
C=C(F)C(=O)N1CCN(c2nc(OC[C@@H]3CC(F)(F)CN3C)nc3c2COC(c2cccc4cccc(Cl)c24)C3)C[C@@H]1CC#N (single isomer, unassigned) [228 (Isomer A)]

>  <Test System>
KRAS G12C protein (Homo sapiens, UniProt P01116, G12C)

>  <IC50>
≤ 0.3 µM

$$$$
>  <Molecule>
C=C(F)C(=O)N1CCN(c2nc(OC[C@@H]3CCCN3C)nc3c2OCC(c2cccc4cccc(Cl)c24)O3)C[C@@H]1CC#N (single isomer, unassigned) [64 (Isomer B)]

>  <Test System>
KRAS G12C protein (Homo sapiens, UniProt P01116, G12C)

>  <IC50>
0.3 to 3 µM

$$$$
>  <Molecule>
C=CC(=O)N1CCN(c2nc(OC[C@@H]3CCCN3C)nc3c2OCC(c2cccc4cccc(Cl)c24)O3)CC1 (single isomer, unassigned) [135 (Isomer B)]

>  <Test System>
KRAS G12C protein (Homo sapiens, UniProt P01116, G12C)

>  <IC50>
≥ 3 µM

$$$$
>  <Molecule>
C=C(F)C(=O)N1[C@H](C)CN(c2nc(OC[C@@H]3CCCN3C)nc3c2COC(c2cccc4cccc(Cl)c24)C3)C[C@@H]1C (single isomer, unassigned) [237 (Isomer A)]

>  <Test System>
KRAS G12C protein (Homo sapiens, UniProt P01116, G12C)

>  <IC50>
≥ 3 µM

$$$$
>  <Molecule>
C=C(C)C(=O)N1CCN(c2nc(OC[C@@H]3CCCN3C)nc3c2COC(c2cccc4cccc(Cl)c24)C3)C[C@@H]1CC#N (single isomer, unassigned) [240 (Isomer B)]

>  <Test System>
KRAS G12C protein (Homo sapiens, UniProt P01116, G12C)

>  <IC50>
≥ 3 µM

$$$$
>  <Molecule>
C=C(F)C(=O)N1CCN(c2nc(OC[C@@H]3CCCN3C)nc3c2COC(c2nc(N)cc4ccccc24)C3)C[C@@H]1CC#N (single isomer, unassigned) [259 (Isomer A)]

>  <Test System>
KRAS G12C protein (Homo sapiens, UniProt P01116, G12C)

>  <IC50>
0.3 to 3 µM

$$$$
>  <Molecule>
C=C(F)C(=O)N1C[C@H](C)N(c2nc(OC[C@@H]3CCCN3C)nc3c2COC(c2cccc4cccc(Cl)c24)C3)C[C@H]1C (single isomer, unassigned) [235 (Isomer B)]

>  <Test System>
KRAS G12C protein (Homo sapiens, UniProt P01116, G12C)

>  <IC50>
≥ 3 µM

$$$$
>  <Molecule>
C=C(F)C(=O)N1CCN(c2nc(OC[C@@H]3CCCN3C)nc3c2CO[C@@H](c2cccc4cccc(Cl)c24)C3)C[C@@H]1CC#N (single isomer, unassigned) [43 (Isomer B)]

>  <Test System>
KRAS G12C protein (Homo sapiens, UniProt P01116, G12C)

>  <IC50>
≤ 0.3 µM

$$$$
>  <Molecule>
CC#CC(=O)N1CCN(c2nc(OC[C@@H]3CCCN3C)nc3c2COC(c2cccc4cccc(Cl)c24)C3)C[C@@H]1CC#N (single isomer, unassigned) [243 (Isomer B)]

>  <Test System>
KRAS G12C protein (Homo sapiens, UniProt P01116, G12C)

>  <IC50>
≤ 0.3 µM

$$$$
>  <Molecule>
C=C(F)C(=O)N1CCN(c2nc(OC[C@@H]3CCCN3C)nc3c2COC(c2cccc4cccc(Cl)c24)C3)[C@@H](C)C1 (single isomer, unassigned) [44 (Isomer A)]

>  <Test System>
KRAS G12C protein (Homo sapiens, UniProt P01116, G12C)

>  <IC50>
≥ 3 µM

$$$$
>  <Molecule>
C=C(F)C(=O)N1CCN(c2nc(OC[C@@H]3CCCN3C)nc3c2CC=C(c2cccc4cccc(Cl)c24)O3)C[C@H]1C [Compound 154]

>  <Test System>
KRAS G12C protein (Homo sapiens, UniProt P01116, G12C)

>  <IC50>
≥ 3 µM

$$$$
